Recorded EC50 for the following molecules
# assay_name: Luminescence Cell-Based Dose Confirmation HTS to Identify Activators of 5'UTR Stem-Loop Driven Alpha-Synuclein mRNA Translation in H4 Neuroglioblastoma Cells. [Related pubchem assays: 1829 (Project Summary), 1814 (Primary HTS)]
# Assay type: functional
Activity calls are given as the source filed them. Rule as the data show it: actives have a measured EC50 and inactives only a lower limit.
readout: EC50

{"columns": ["molecule", "readout", "endpoint_value"],
 "data": [
  ["O=S(=O)(Nc1ccc2c(c1)OCCO2)c1cccs1", "EC50", "14.8 µM (active)"],
  ["C=CCSc1n[nH]c(-c2ccccc2)n1", "EC50", "9.22 µM (active)"],
  ["Cc1nc(N=C(N)NC(=O)c2ccccc2)nc2ccccc12", "EC50", "8.34 µM (active)"],
  ["Oc1ccc(C2C(c3ccccc3)=NN=C(c3ccccc3F)N2O)c(O)c1 (stereo not given)", "EC50", "95.8 µM (active)"],
  ["O=C1CN(c2nc(-c3cccs3)nc3sc4c(c23)CCCC4)CCN1", "EC50", "9.49 µM (active)"]
]}

Where these numbers come from: ChEMBL document CHEMBL1201862
